Task for the reader: assign each of the following compounds its reported cell transfection efficiency, times that of YK-419.
System: 293T cells
Assay: Fluorescent detection of Fluc-mRNA (cell transfection efficiency of LNP formulations)
Type: cell-based
Conditions: ratio vs YK-419
Number only, no unit.

In: Retrieve cell transfection efficiency, times that of YK-419 on 293T cells; query CCCCCCCCC(CCCCCCCC)C(=O)OCCCCCCN(CCO)CCN(CCO)CCCCCCOC(=O)C(CCCCCCCC)CCCCCCCC [YK-402]
Out: 1.59

In: Retrieve cell transfection efficiency, times that of YK-419 on 293T cells; query CCCCCCCCC(CCCCCCCC)COC(=O)CCCCCN(CCCO)CCN(CCCO)CCCCCC(=O)OCC(CCCCCCCC)CCCCCCCC [YK-422]
Out: 2.03

In: Retrieve cell transfection efficiency, times that of YK-419 on 293T cells; query CCCCCCCCC(CCCCCCCC)OC(=O)CCCCCN(CCO)CCN(CCO)CCCCCC(=O)OC(CCCCCCCC)CCCCCCCC [YK-401]
Out: 1.77

In: Retrieve cell transfection efficiency, times that of YK-419 on 293T cells; query CCCCCCCCCCCOC(=O)CCCN(CCO)CCN(CCO)CCCCCC(=O)OC(CCCCCCCC)CCCCCCCC [YK-407]
Out: 6.44

In: Retrieve cell transfection efficiency, times that of YK-419 on 293T cells; query CCCCCCCCC(CCCCCCCC)OC(=O)CCCCCCCN(CCO)CCN(CCO)CCCCCCCC(=O)OC(CCCCCCCC)CCCCCCCC [YK-403]
Out: 1.66

In: Retrieve cell transfection efficiency, times that of YK-419 on 293T cells; query CCCCCCCCC(CCCCCCCC)COC(=O)CCCCCN(CCCO)CCCN(CCCO)CCCCCC(=O)OCC(CCCCCCCC)CCCCCCCC [YK-423]
Out: 1.97

====

Tested on: female BALB/C mice
Experiment: In vivo imaging in mice of Fluc-mRNA LNP formulations (mRNA expression and duration)
Conditions: 24 h
measurementKind: expression amount in mice, times that of YK-415
Number only, no unit.

In: Tell us which expression amount in mice, times that of YK-415 value is on record for CCCCCCCCC(CCCCCCCC)C(=O)OCCCCCCN(CCO)CCN(CCO)CCCCCCOC(=O)C(CCCCCCCC)CCCCCCCC
Out: 12.38

In: Tell us which expression amount in mice, times that of YK-415 value is on record for CCCCCCCCC(CCCCCCCC)OC(=O)CCCCCCCN(CCO)CCN(CCO)CCCCCCCC(=O)OC(CCCCCCCC)CCCCCCCC
Out: 13.26

In: Tell us which expression amount in mice, times that of YK-415 value is on record for CCCCCCCCCCCOC(=O)CCCN(CCO)CCN(CCO)CCCCCC(=O)OC(CCCCCCCC)CCCCCCCC
Out: 31.25

In: Tell us which expression amount in mice, times that of YK-415 value is on record for CCCCCCCCC(CCCCCCCC)COC(=O)CCCCCN(CCCO)CCCN(CCCO)CCCCCC(=O)OCC(CCCCCCCC)CCCCCCCC
Out: 11.73

In: Tell us which expression amount in mice, times that of YK-415 value is on record for CCCCCCCCC(CCCCCCCC)OC(=O)CCCCCN(CCO)CCN(CCO)CCCCCC(=O)OC(CCCCCCCC)CCCCCCCC
Out: 12.50

In: Tell us which expression amount in mice, times that of YK-415 value is on record for CCCCCCCCC(CCCCCCCC)COC(=O)CCCCCN(CCCO)CCN(CCCO)CCCCCC(=O)OCC(CCCCCCCC)CCCCCCCC
Out: 10.98
